Biological target: hA3AR (Homo sapiens)
Construct: expressed in transfected cells; host or cells: HeLa (HeLa-A3) cell membranes
Sequence (P0DMS8 whole entry): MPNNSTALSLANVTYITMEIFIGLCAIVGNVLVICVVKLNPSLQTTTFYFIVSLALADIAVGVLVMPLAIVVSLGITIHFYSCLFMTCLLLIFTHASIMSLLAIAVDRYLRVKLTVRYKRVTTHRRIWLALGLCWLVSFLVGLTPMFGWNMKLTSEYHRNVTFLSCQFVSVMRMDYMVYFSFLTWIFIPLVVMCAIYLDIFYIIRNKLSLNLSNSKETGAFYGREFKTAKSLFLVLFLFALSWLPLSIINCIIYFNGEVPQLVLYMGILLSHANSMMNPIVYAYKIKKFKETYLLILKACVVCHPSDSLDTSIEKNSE
Assay: Radioligand binding competition, [3H]NECA, membranes from HeLa-A3 cells
Settings: 1 μM, [3H]NECA, human HeLa cells, n = 2
Method: All ligands reported in Tables 1–5 were obtained and tested as racemic mixtures. The whole set was evaluated in silico with a combination of a Rdkit[37] […] A brief description is given below. […] Non-specific binding was determined in the presence of 10 μM R-PIA. […] Non-specific binding was determined in the presence of 100 μM R-PIA. […] After the incubation time, membranes were washed and filtered and radioactivity was detected in a MicroBeta TriLux reader (PerkinElmer).
Kindly return 1.0 if reported % at 1 μM hA3 (percentage displacement of specific binding) is no lower than 20%; return 0.0 if it is lower.

Here are 4 compounds together with their reported answers.
compound: CC1=C(C(=O)OC(C)C)C(c2cccs2)n2c(nc3cc(F)ccc32)N1 (centres unmarked) [16f]
category: 0.0
--
compound: CCOC(=O)C1=C(C)Nc2nc3ccc(F)cc3n2C1c1cocn1 (centres unmarked) [17a]
category: 1.0
--
compound: CCOC(=O)C1=C(C)Nc2nc3cc(Cl)c(Cl)cc3n2C1c1cccs1 (centres unmarked) [14m]
category: 0.0
--
compound: CCOC(=O)C1=C(C)Nc2nc3cc(Br)ccc3n2C1c1ccco1 (centres unmarked) [16q]
category: 1.0

Inquiry: Has CC1=C(C(=O)OC(C)C)C(c2ccoc2)n2c(nc3ccc(F)cc32)N1 (centres unmarked) [15d] a recorded % at 1 μM hA3 (percentage displacement of specific binding) greater than or equal to 20%?
Reply text: 0.0

Inquiry: Has CC1=C(C(=O)OC(C)C)C(c2cocn2)n2c(nc3cc(Cl)ccc32)N1 (centres unmarked) [18d] a recorded % at 1 μM hA3 (percentage displacement of specific binding) greater than or equal to 20%?
Reply text: 1.0

Inquiry: Has CC1=C(C(=O)OC(C)C)[C@@H](c2ccco2)n2c(nc3cc(Cl)ccc32)N1 [(S)-16j] a recorded % at 1 μM hA3 (percentage displacement of specific binding) greater than or equal to 20%?
Reply text: 0.0

====

Target: hA2AAR (Homo sapiens)
Construct: expressed in transfected cells; host or cells: HeLa (HeLa-A2A) cell membranes
Sequence (P29274 whole entry): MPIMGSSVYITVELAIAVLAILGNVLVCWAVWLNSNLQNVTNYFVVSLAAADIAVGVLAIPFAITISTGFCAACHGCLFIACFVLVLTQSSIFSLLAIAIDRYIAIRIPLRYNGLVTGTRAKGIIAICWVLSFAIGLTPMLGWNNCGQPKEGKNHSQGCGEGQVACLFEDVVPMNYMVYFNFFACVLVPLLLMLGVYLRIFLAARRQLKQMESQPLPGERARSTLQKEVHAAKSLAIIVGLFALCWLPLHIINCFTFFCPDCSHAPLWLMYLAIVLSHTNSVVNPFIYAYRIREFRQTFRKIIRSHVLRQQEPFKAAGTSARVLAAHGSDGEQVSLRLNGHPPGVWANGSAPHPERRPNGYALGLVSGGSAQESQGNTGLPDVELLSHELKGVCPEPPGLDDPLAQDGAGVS
Assay: Radioligand binding competition, [3H]ZM241385, membranes from HeLa-A2A cells
Conditions: 1 μM, [3H]ZM241385, human HeLa cells, n = 2
quantity_measured: % at 1 μM hA2A (percentage displacement of specific binding) (%)
Kindly provide the numeric value in % only, without the unit symbol.

These recorded examples may help you get a feel for the data.
compound: CC1=C(C(=O)OC(C)C)C(c2ccoc2)n2c(nc3cc(Cl)c(Cl)cc32)N1 (stereo not shown) [14l]
observed_measurement: 31
--
compound: CC1=C(C(=O)OC(C)C)C(c2ccco2)n2c(nc3cc(F)c(F)cc32)N1 (stereo not shown) [14b]
observed_measurement: 22
--
compound: CCOC(=O)C1=C(C)Nc2nc3cc(F)ccc3n2C1c1cocn1 (stereo not shown) [18a]
observed_measurement: 16
--
compound: CC1=C(C(=O)OC(C)C)[C@H](c2ccco2)n2c(nc3cc(F)ccc32)N1 [(R)-16b]
observed_measurement: 5

Value of measured % at 1 μM hA2A (percentage displacement of specific binding) for the entry CC1=C(C(=O)OC(C)C)C(c2cccs2)n2c(nc3ccc(Br)cc32)N1 (stereo not shown) [15v] : 6

Value of measured % at 1 μM hA2A (percentage displacement of specific binding) for the entry CC1=C(C(=O)OC(C)C)C(c2ccco2)n2c(nc3cc(Br)c(Br)cc32)N1 (stereo not shown) [14r] : 28

Value of measured % at 1 μM hA2A (percentage displacement of specific binding) for the entry CCOC(=O)C1=C(C)Nc2nc3ccc(F)cc3n2C1c1cocn1 (stereo not shown) [17a] : 4

Value of measured % at 1 μM hA2A (percentage displacement of specific binding) for the entry CC1=C(C(=O)OC(C)C)C(c2ccco2)n2c(nc3ccc(F)cc32)N1 (stereo not shown) [15b] : 3

Value of measured % at 1 μM hA2A (percentage displacement of specific binding) for the entry CC1=C(C(=O)OC(C)C)C(c2ccsc2)n2c(nc3cc(F)c(F)cc32)N1 (stereo not shown) [14h] : 3

Value of measured % at 1 μM hA2A (percentage displacement of specific binding) for the entry CC1=C(C(=O)OC(C)C)C(c2ccoc2)n2c(nc3ccc(Br)cc32)N1 (stereo not shown) [15t] : 3

Value of measured % at 1 μM hA2A (percentage displacement of specific binding) for the entry CCOC(=O)C1=C(C)Nc2nc3cc(Br)c(Br)cc3n2C1c1ccsc1 (stereo not shown) [14w] : 7

Value of measured % at 1 μM hA2A (percentage displacement of specific binding) for the entry CCOC(=O)C1=C(C)Nc2nc3cc(F)ccc3n2C1c1ccsc1 (stereo not shown) [16g] : 1

Value of measured % at 1 μM hA2A (percentage displacement of specific binding) for the entry CC1=C(C(=O)OC(C)C)C(c2cocn2)n2c(nc3cc(F)ccc32)N1 (stereo not shown) [18b] : 20

Value of measured % at 1 μM hA2A (percentage displacement of specific binding) for the entry CC1=C(C(=O)OC(C)C)[C@H](c2ccoc2)n2c(nc3cc(Cl)ccc32)N1 [(S)-16l] : 25

Value of measured % at 1 μM hA2A (percentage displacement of specific binding) for the entry CC1=C(C(=O)OC(C)C)C(c2ccco2)n2c(nc3cc(Cl)ccc32)N1 (stereo not shown) [16j] : 24

Value of measured % at 1 μM hA2A (percentage displacement of specific binding) for the entry CC1=C(C(=O)OC(C)C)C(c2cccs2)n2c(nc3ccc(Cl)cc32)N1 (stereo not shown) [15n] : 3

Value of measured % at 1 μM hA2A (percentage displacement of specific binding) for the entry CC1=C(C(=O)OC(C)C)C(c2ccco2)n2c(nc3ccc(Br)cc32)N1 (stereo not shown) [15r] : 1

Value of measured % at 1 μM hA2A (percentage displacement of specific binding) for the entry CCOC(=O)C1=C(C)Nc2nc3cc(Cl)c(Cl)cc3n2C1c1ccsc1 (stereo not shown) [14o] : 1

Value of measured % at 1 μM hA2A (percentage displacement of specific binding) for the entry CC1=C(C(=O)OC(C)C)C(c2cccs2)n2c(nc3cc(Br)ccc32)N1 (stereo not shown) [16v] : 1
